Provide the reported normalized RNA/DNA level with ligand (log10) of each item.
B1: library; a variant is named by its letters at N, in order (parent)
chain: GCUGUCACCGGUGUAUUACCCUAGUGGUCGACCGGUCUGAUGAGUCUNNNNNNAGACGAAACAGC

Variants of: B1
Assay: normalized RNA/DNA level with ligand (relative to sTRSVctl = 100) (log10 (% of sTRSVctl)); ligand: hypoxanthine (xanthine aptamer); higher = less ribozyme self-cleavage, higher mRNA level
Settings: ligand concentration (+) RNA-Seq: 5 mM, HEK293T, reporter: mCherry (pCS4076), ligand present: yes
One number for each entry.

Mutation Descriptor: UAUAAC
Result: 1.9

# return normalized RNA/DNA level with ligand (log10) for each item in the list
1. GCGUCA
2. AAGUCC
3. AUGCGG
4. UGGAUU
5. CCUCCU

[1.96, 1.89, 1.75, 1.97, 1.95]
